Procedure Details: Stability (moisture content) at 23° C. and 92.5% humidity
Assay type: physicochemical
Experimental Parameters: temperature 23° C., humidity 92.5%, 7 h
Method: The stability of various 3-hydroxy-3-methylbutyrate salts and the complexes of the present disclosure was each measured at 23° C. and 92.5% humidity, and the results are shown in Table 7.
Listed compounds paired with reported moisture content
Quantity Kind: moisture content (%)

Compound | Endpoint Unit | Numeric Value
CC(C)(O)CC(=O)O [HMB-K complex] | % | 2.35
CC(C)(O)CC(=O)O [HMB-Na complex] | % | 1.81
CC(C)(O)CC(=O)[O-].[Na+] [sodium 3-hydroxy-3-methylbutyrate, reference compound] | % | 2.58
CC(C)(O)CC(=O)O [HMB-Ca complex] | % | 1.13
CC(C)(O)CC(=O)[O-].[K+] [potassium 3-hydroxy-3-methylbutyrate, reference compound] | % | 3.35
